Conditions: in ethanol, 293.15 K
MEASUREMENT KIND: solubility (mole fraction)
No unit in the answer, please; the number alone is enough.

solubility (mole fraction) for `Br.Cc1ccc(Sc2ccccc2N2CCNCC2)c(C)c1` is 0.0015

###

Settings: in n-butanol, 318.15 K
MEASUREMENT KIND: solubility (mole fraction)
No unit in the answer, please; the number alone is enough.

solubility (mole fraction) for `Br.Cc1ccc(Sc2ccccc2N2CCNCC2)c(C)c1` is 0.00271

###

Conditions: in n-butanol, 283.15 K
MEASUREMENT KIND: solubility (mole fraction)
No unit in the answer, please; the number alone is enough.

solubility (mole fraction) for `Br.Cc1ccc(Sc2ccccc2N2CCNCC2)c(C)c1` is 0.000582

###

Settings: in n-butanol, 293.15 K
MEASUREMENT KIND: solubility (mole fraction)

solubility (mole fraction) for `Br.Cc1ccc(Sc2ccccc2N2CCNCC2)c(C)c1` is 0.00086

###

Conditions: in 2-butanone, 293.15 K
MEASUREMENT KIND: solubility (mole fraction)
No unit in the answer, please; the number alone is enough.

solubility (mole fraction) for `Br.Cc1ccc(Sc2ccccc2N2CCNCC2)c(C)c1` is 0.000136

###

Conditions: in 2-butanone, 318.15 K
MEASUREMENT KIND: solubility (mole fraction)
No unit in the answer, please; the number alone is enough.

solubility (mole fraction) for `Br.Cc1ccc(Sc2ccccc2N2CCNCC2)c(C)c1` is 0.000338

###

Conditions: in 2-butanone, 303.15 K
MEASUREMENT KIND: solubility (mole fraction)
No unit in the answer, please; the number alone is enough.

solubility (mole fraction) for `Br.Cc1ccc(Sc2ccccc2N2CCNCC2)c(C)c1` is 0.00021

###

Conditions: in 2-butanone, 313.15 K
MEASUREMENT KIND: solubility (mole fraction)

solubility (mole fraction) for `Br.Cc1ccc(Sc2ccccc2N2CCNCC2)c(C)c1` is 0.000311

###

Details: in 2-butanone, 283.15 K
MEASUREMENT KIND: solubility (mole fraction)
No unit in the answer, please; the number alone is enough.

solubility (mole fraction) for `Br.Cc1ccc(Sc2ccccc2N2CCNCC2)c(C)c1` is 6.2e-05

###

Details: in n-butanol, 298.15 K
MEASUREMENT KIND: solubility (mole fraction)

solubility (mole fraction) for `Br.Cc1ccc(Sc2ccccc2N2CCNCC2)c(C)c1` is 0.00121

###

Settings: in 2-butanone, 288.15 K
MEASUREMENT KIND: solubility (mole fraction)
No unit in the answer, please; the number alone is enough.

solubility (mole fraction) for `Br.Cc1ccc(Sc2ccccc2N2CCNCC2)c(C)c1` is 8.4e-05

###

Conditions: in n-propanol, 313.15 K
MEASUREMENT KIND: solubility (mole fraction)
No unit in the answer, please; the number alone is enough.

solubility (mole fraction) for `Br.Cc1ccc(Sc2ccccc2N2CCNCC2)c(C)c1` is 0.00245

###

Conditions: in ethanol, 308.15 K
MEASUREMENT KIND: solubility (mole fraction)
No unit in the answer, please; the number alone is enough.

solubility (mole fraction) for `Br.Cc1ccc(Sc2ccccc2N2CCNCC2)c(C)c1` is 0.00269

###

Conditions: in ethanol, 288.15 K
MEASUREMENT KIND: solubility (mole fraction)
No unit in the answer, please; the number alone is enough.

solubility (mole fraction) for `Br.Cc1ccc(Sc2ccccc2N2CCNCC2)c(C)c1` is 0.00138

###

Conditions: in n-propanol, 298.15 K
MEASUREMENT KIND: solubility (mole fraction)

solubility (mole fraction) for `Br.Cc1ccc(Sc2ccccc2N2CCNCC2)c(C)c1` is 0.00132

###

Settings: in n-propanol, 283.15 K
MEASUREMENT KIND: solubility (mole fraction)
No unit in the answer, please; the number alone is enough.

solubility (mole fraction) for `Br.Cc1ccc(Sc2ccccc2N2CCNCC2)c(C)c1` is 0.000934

###

Settings: in n-propanol, 318.15 K
MEASUREMENT KIND: solubility (mole fraction)
No unit in the answer, please; the number alone is enough.

solubility (mole fraction) for `Br.Cc1ccc(Sc2ccccc2N2CCNCC2)c(C)c1` is 0.00295

###

Details: in n-propanol, 293.15 K
MEASUREMENT KIND: solubility (mole fraction)
No unit in the answer, please; the number alone is enough.

solubility (mole fraction) for `Br.Cc1ccc(Sc2ccccc2N2CCNCC2)c(C)c1` is 0.00115

###

Details: in ethanol, 313.15 K
MEASUREMENT KIND: solubility (mole fraction)
No unit in the answer, please; the number alone is enough.

solubility (mole fraction) for `Br.Cc1ccc(Sc2ccccc2N2CCNCC2)c(C)c1` is 0.00297

###

Details: in ethanol, 298.15 K
MEASUREMENT KIND: solubility (mole fraction)
No unit in the answer, please; the number alone is enough.

solubility (mole fraction) for `Br.Cc1ccc(Sc2ccccc2N2CCNCC2)c(C)c1` is 0.00162

###

Settings: in 2-butanone, 298.15 K
MEASUREMENT KIND: solubility (mole fraction)
No unit in the answer, please; the number alone is enough.

solubility (mole fraction) for `Br.Cc1ccc(Sc2ccccc2N2CCNCC2)c(C)c1` is 0.000163
